Molecular target: Tyrosyl-tRNA synthetase, putative (Trypanosoma cruzi (strain CL Brener)) (UniProt Q4DSP6)
Sequence (Q4DSP6 as listed by the source): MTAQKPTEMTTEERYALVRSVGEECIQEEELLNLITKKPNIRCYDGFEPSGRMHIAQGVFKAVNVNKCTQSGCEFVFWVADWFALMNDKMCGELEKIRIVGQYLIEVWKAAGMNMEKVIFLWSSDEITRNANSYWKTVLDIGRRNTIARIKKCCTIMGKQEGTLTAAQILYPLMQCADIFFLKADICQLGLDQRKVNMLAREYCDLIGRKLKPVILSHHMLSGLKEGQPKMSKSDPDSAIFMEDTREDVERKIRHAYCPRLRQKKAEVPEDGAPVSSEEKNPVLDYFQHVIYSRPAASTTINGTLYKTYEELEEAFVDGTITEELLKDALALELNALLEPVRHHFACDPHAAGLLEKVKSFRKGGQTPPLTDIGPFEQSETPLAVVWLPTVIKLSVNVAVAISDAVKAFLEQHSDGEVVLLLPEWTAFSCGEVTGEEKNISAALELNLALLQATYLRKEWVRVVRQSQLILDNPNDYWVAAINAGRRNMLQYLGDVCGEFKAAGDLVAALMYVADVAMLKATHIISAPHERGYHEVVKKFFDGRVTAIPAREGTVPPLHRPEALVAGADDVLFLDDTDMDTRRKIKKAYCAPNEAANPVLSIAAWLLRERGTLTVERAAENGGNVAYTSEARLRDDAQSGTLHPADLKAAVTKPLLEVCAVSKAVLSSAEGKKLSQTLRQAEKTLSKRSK
Test: Trypanosoma cruzi tyrosyl tRNA synthetase (TcYRS) SOP
Type: functional
Design: scale not given: direction of the effect not stated beside the values
Conditions: 30 µM
Could you please report measured Percent Effect for the items listed next?
Enter your answer as a number in %; do not include the unit.

Ask: # query: Percent Effect of entry N#Cc1cn(C2CC2)c(=O)n(CC(O)c2ccc(OC(F)F)cc2)c1=O (centres undefined)
Result: 17.1

Ask: # query: Percent Effect of entry "Cn1cnnc1C1CCN(C(=O)CCCOc2ccccc2F)CC1"
Result: 7.32

Ask: # query: Percent Effect of entry "CNC(=O)c1cc2c(nc1NCC1CC1)CCN(S(=O)(=O)C1CC1)CC2"
Result: 11.5

Ask: # query: Percent Effect of entry "O=C(Cn1nc(-c2ccc(F)cc2)oc1=O)Nc1ccccc1"
Result: 21.9

Ask: # query: Percent Effect of entry CC(=O)N1CCCC1c1cccc(Cc2ccccc2F)n1 (centres undefined)
Result: -9.09

Ask: # query: Percent Effect of entry "O=C1N(c2ccccc2)Cc2nc(=O)[nH]n21"
Result: 10.3

Ask: # query: Percent Effect of entry "CC(C)NC(=O)c1ccc2c(c1)nc1n2CCN(c2ccccc2)C1"
Result: 33.3

Ask: # query: Percent Effect of entry COc1ccc(NC(=O)NC(C)c2nc[nH]n2)cc1 (centres undefined)
Result: 11.1

Ask: # query: Percent Effect of entry O=C(CCC1CCCO1)NS(=O)(=O)c1ccc(Cl)cc1 (centres undefined)
Result: 18.5

Ask: # query: Percent Effect of entry Cc1nc(C2CCCN2C(=O)CNS(C)(=O)=O)no1 (centres undefined)
Result: 18.5

Ask: # query: Percent Effect of entry "O=S(=O)(C1CC1)N1CCO[C@H]2[C@H](OCCN3CCCC3)CC[C@@H]21"
Result: 20

Ask: # query: Percent Effect of entry "O=C(N1CCCO1)[C@@]12CCO[C@@H]1CCN(Cc1ccccc1)C2"
Result: 10

Ask: # query: Percent Effect of entry "CC(C)(C)c1cnc(CN2CCC(c3ccnn3CCO)CC2)o1"
Result: 11.4

Ask: # query: Percent Effect of entry Cc1cc(NC(=O)CN(C)C2CCCN(c3cccnn3)C2)n(C)n1 (centres undefined)
Result: 13.6

Ask: # query: Percent Effect of entry "O=C(NCCc1ccsc1)Nc1cccnc1N1CCCC1"
Result: 35.8

Ask: # query: Percent Effect of entry "CCCN1CCC(NC(=O)c2ccc(F)cc2I)CC1"
Result: 15.4

Ask: # query: Percent Effect of entry Cc1noc(C)c1CNCC1CCN(CC(O)c2ccccc2)CC1 (centres undefined)
Result: 17.7

Ask: # query: Percent Effect of entry "O=c1[nH]c2nc(N3CCSCC3)ncc2c(=O)n1-c1cccc(F)c1"
Result: 10.4

Ask: # query: Percent Effect of entry "Cn1cc(CN2CCN(Cc3nccn3C)CC2)cn1"
Result: 1.24

###

Tested on: Trypanosoma cruzi
Assay: Trypanosoma cruzi phosphomannomutase and mannose-1-phosphate guanylyltransferase assay
Type: functional
Design: scale not given: direction of the effect not stated beside the values
Conditions: 10 µM
Could you please report measured Percent Effect for the items listed next?
Enter your answer as a number in %; do not include the unit.

Ask: # query: Percent Effect of entry Cc1cccc(CN2CCC3(CCCN(C(=O)NC4CC4)C3)C2=O)n1 (stereo not given)
Result: -7.99

Ask: # query: Percent Effect of entry Cc1nc2cc(C3CCN(Cc4cccc(F)c4F)C3)nn2c(O)c1C (stereo not given)
Result: 0.988

Ask: # query: Percent Effect of entry CC(NC(=O)NCCCn1cncn1)c1ccc2c(c1)OCCO2 (stereo not given)
Result: -3.81

Ask: # query: Percent Effect of entry Cc1cnn(CC2CCCCN2C(=O)c2ccc3[nH]nnc3c2)c1 (stereo not given)
Result: -2.25

Ask: # query: Percent Effect of entry Cc1noc(C)c1CNCC1CCCN1c1cccnn1 (stereo not given)
Result: -4.02

###

Target: Chromo domain-containing protein 1 (Saccharomyces cerevisiae (strain ATCC 204508 / S288c) (Baker's yeast)) (UniProt P32657)
Sequence (P32657 whole entry, the tested form may be a part): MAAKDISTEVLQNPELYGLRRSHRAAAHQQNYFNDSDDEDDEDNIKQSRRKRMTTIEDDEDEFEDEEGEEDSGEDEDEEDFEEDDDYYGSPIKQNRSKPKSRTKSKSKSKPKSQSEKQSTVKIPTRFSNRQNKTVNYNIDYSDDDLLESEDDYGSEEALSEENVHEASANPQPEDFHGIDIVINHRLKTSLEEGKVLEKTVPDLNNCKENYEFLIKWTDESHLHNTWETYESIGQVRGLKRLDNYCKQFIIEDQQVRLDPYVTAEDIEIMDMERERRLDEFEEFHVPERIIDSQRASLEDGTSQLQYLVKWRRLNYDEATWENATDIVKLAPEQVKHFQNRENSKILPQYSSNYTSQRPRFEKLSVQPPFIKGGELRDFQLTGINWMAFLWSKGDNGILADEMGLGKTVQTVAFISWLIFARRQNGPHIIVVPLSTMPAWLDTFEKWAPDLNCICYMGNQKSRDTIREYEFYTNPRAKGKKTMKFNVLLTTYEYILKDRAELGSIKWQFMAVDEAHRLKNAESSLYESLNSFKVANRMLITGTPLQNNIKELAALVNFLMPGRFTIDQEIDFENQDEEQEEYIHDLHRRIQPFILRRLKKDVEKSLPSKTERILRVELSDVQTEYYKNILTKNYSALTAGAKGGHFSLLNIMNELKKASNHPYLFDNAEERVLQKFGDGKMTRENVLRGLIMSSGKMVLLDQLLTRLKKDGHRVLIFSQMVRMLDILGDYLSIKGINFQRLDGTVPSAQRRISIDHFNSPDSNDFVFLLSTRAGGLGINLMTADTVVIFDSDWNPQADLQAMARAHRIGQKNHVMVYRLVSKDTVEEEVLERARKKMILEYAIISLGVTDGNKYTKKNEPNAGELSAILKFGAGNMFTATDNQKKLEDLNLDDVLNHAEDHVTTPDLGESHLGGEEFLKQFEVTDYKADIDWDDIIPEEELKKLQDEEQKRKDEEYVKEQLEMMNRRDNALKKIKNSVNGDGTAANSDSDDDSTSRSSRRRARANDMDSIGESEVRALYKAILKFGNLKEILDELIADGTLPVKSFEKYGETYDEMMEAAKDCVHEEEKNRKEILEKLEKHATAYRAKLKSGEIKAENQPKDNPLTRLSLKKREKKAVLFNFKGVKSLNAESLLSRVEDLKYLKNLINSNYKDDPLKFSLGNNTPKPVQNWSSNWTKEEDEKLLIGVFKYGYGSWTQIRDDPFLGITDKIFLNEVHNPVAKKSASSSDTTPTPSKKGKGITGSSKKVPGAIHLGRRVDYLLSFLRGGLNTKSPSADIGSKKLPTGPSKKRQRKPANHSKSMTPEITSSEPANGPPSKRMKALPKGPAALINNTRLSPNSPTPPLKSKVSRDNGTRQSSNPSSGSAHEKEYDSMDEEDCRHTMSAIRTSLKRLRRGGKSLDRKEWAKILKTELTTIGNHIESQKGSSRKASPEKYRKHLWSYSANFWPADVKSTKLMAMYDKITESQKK
Assay: ScCHD-1 Enzyme Inhibition Assay; also: in the data most compounds retested in dose-response had high values
Assay type: functional
Design: scale not given: direction of the effect not stated beside the values
Settings: 30 µM
Could you please report measured Percent Effect for the items listed next?
Enter your answer as a number in %; do not include the unit.

Ask: # query: Percent Effect of entry Fc1cccc(-c2nc(CN3CCOC(Cn4cccn4)C3)co2)c1 (configuration not stated)
Result: -3.05

Ask: # query: Percent Effect of entry "c1cncc(COCc2nnc3n2CCN(Cc2ccsc2)C3)c1"
Result: -2.81

Ask: # query: Percent Effect of entry O=C(CCc1cccnc1)N(Cc1ccsc1)CC1CCCO1 (configuration not stated)
Result: -3.52

Ask: # query: Percent Effect of entry Cc1nc(C(=O)N2CCCC2c2c(C)nn(C)c2C)ccc1C#N (configuration not stated)
Result: 10.7

Ask: # query: Percent Effect of entry CCC(C(=O)NCc1ccncc1)N(c1ccc(OC)cc1)S(C)(=O)=O (configuration not stated)
Result: -13.6

Ask: # query: Percent Effect of entry "NC(=O)C1CCN(Cc2cccc(NC(=O)c3ccsc3)c2)CC1"
Result: -5.67

Ask: # query: Percent Effect of entry "O=C(Cn1ccc2ccccc21)NCc1ccc(C(=O)O)cc1"
Result: -0.974

Ask: # query: Percent Effect of entry "Cn1ccc(-c2cc(C(=O)N3CCOCC3)c3ccccn23)n1"
Result: -7.76

Ask: # query: Percent Effect of entry CN1CCOC(CN(C(=O)CC2CCCC2)c2nccs2)C1 (configuration not stated)
Result: 2.72

Ask: # query: Percent Effect of entry CC(C)CC1SCC(=O)Nc2c1cnn2-c1ccc(F)cc1 (configuration not stated)
Result: -4.25

Ask: # query: Percent Effect of entry COc1cccc(C2CCCN2Cc2nc3c(cnn3C)c(=O)[nH]2)c1 (configuration not stated)
Result: -5.39

Ask: # query: Percent Effect of entry CCN(CC)Cc1ccc(C(=O)N2CCCCC2Cn2cccn2)o1 (configuration not stated)
Result: 0.882

Ask: # query: Percent Effect of entry Cc1nc(C)n(CC2CCCCN2CC(=O)Nc2nncs2)n1 (configuration not stated)
Result: -5.05

Ask: # query: Percent Effect of entry "Cc1cc2nc(SCC(=O)N3CCOCC3)n(CC(C)C)c(=O)c2[nH]1"
Result: -2.79

Ask: # query: Percent Effect of entry CC(NC(=O)Nc1cc(F)ccc1N1CCCCC1)c1nncn1C (configuration not stated)
Result: -2.66

Ask: # query: Percent Effect of entry Cn1nc(C2CCCN(C(=O)CO)C2)cc1O (configuration not stated)
Result: -2.64

Ask: # query: Percent Effect of entry O=C(c1csc(Br)c1)N1CCCC(n2ccnc2)C1 (configuration not stated)
Result: 54.1

Ask: # query: Percent Effect of entry O=c1oc(-c2cccs2)nn1CC(O)c1ccc(F)cc1 (configuration not stated)
Result: -5.35

Ask: # query: Percent Effect of entry COCCN1CCN(CCCS(C)(=O)=O)CC1C (configuration not stated)
Result: 52

Ask: # query: Percent Effect of entry CN1CCN(Cc2cscn2)CC(C(=O)N(C)C)C1 (configuration not stated)
Result: -4.45

Ask: # query: Percent Effect of entry "O=C([C@H]1C[C@@H]2CCN(C3CCOCC3)C[C@@H]2O1)N1CCOCC1"
Result: -5.71

Ask: # query: Percent Effect of entry NC(=O)c1cccc(CC2CCN(C(=O)CCCN3CCOCC3)C2)c1 (configuration not stated)
Result: -1.16

Ask: # query: Percent Effect of entry "Cc1cc(CNC(=O)N2CCN(c3ccccc3)CC2)no1"
Result: -1.36

Ask: # query: Percent Effect of entry "CS(=O)(=O)c1ccc(CNC(=O)N2CCC(c3ccccc3)CC2)cc1"
Result: -6.29

Ask: # query: Percent Effect of entry "O=C(C1=CCCC1)N1C[C@@H]2COC[C@]2(COc2cccnc2)C1"
Result: 4.29

Ask: # query: Percent Effect of entry c1cncc(OCC2CN(Cc3ccco3)Cc3nccn3C2)c1 (configuration not stated)
Result: -9.31

Ask: # query: Percent Effect of entry "CN(Cc1cn2c(n1)CN(c1ncc(F)cn1)CC2)Cc1ccco1"
Result: -5.99

###

Target: Proteasome subunit beta (Trypanosoma cruzi) (UniProt O96673)
Sequence (O96673 as listed by the source): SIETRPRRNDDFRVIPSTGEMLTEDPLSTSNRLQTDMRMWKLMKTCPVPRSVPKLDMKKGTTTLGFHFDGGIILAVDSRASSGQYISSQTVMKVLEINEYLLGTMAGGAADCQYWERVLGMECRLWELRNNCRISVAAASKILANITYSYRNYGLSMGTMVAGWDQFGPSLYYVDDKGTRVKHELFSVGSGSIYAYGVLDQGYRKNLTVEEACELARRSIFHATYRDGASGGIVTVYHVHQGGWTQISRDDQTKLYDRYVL
Assay: Trypanosoma cruzi proteasome chymotrypsin-like activity (TcProtChymo) assay. Also: in the data most compounds retested in dose-response had high values.
Format: functional
Design: scale not given: direction of the effect not stated beside the values
Conditions: 9.37 µM
PARAMETER MEASURED: Percent Effect (%)
Enter your answer as a number in %; do not include the unit.

Ask: # query: Percent Effect of entry "Cc1cccc(C(=O)N(C)Cc2cc(Br)cs2)n1"
Result: 12.8

Ask: # query: Percent Effect of entry "Cc1nn(C)c(N2CCOCC2)c1CNCc1ccc(Cl)s1"
Result: 9.62

Ask: # query: Percent Effect of entry "CC(C)NC(=O)NCCCc1cc(N)n(-c2ccccc2)n1"
Result: 24.8

Ask: # query: Percent Effect of entry "N#CC1(C(=O)Nc2ccc(OC(F)F)cc2)CCCC1"
Result: 3.68

Ask: # query: Percent Effect of entry "CCNC(=O)c1ccc2c(c1)nc1n2CCN(Cc2ccco2)C1"
Result: 13.7

Ask: # query: Percent Effect of entry "COC1CCN(C(=O)CCc2c(C)nc3ccnn3c2C)CC1"
Result: 1.95

Ask: # query: Percent Effect of entry "CCOC(=O)c1sc2ccsc2c1CN"
Result: -7.36

Ask: # query: Percent Effect of entry "CN1CCN(C(=O)[C@@H]2CCO[C@@H]3CCN(c4ncccn4)C[C@@H]32)CC1"
Result: 8.21

Ask: # query: Percent Effect of entry "Cc1cc(N(C)Cc2noc(C)n2)n2nc(C)c(C)c2n1"
Result: 15.6

Ask: # query: Percent Effect of entry "CCOC(=O)c1sc2ccsc2c1CNC(=O)C(C)(C)C#N"
Result: -5.57

Ask: # query: Percent Effect of entry "O=C(Nc1ccccn1)C1=NN(c2ccccc2)C(=O)CN1"
Result: 11.9

Ask: # query: Percent Effect of entry "CCn1c(Nc2ccccc2OC)nc2c(C)nn(C)c2c1=O"
Result: 16.3

Ask: # query: Percent Effect of entry "O=C(c1cc(Cl)c2c(c1)OCO2)N1CCN(c2ccccn2)CC1"
Result: 16.1

Ask: # query: Percent Effect of entry COc1ccc(CNC(C)c2cccc(Cl)c2)c(OC)c1OC (centres undefined)
Result: 5.58
